Tested on: Enterobacter cloacae
Positions of bridges follow the written chain, without caps; N, C: chain ends. Non-standard residues stand in square brackets, D forms with d. Residues, ends and D or L forms follow the SMILES beside them. *: point of attachment. Phenylacetyl(4-CF3) = O=C(Cc1ccc(C(F)(F)F)cc1)*; Benzoyl(4-Cl) = O=C(c1ccc(Cl)cc1)*; Lauroyl = CCCCCCCCCCCC(=O)*; X13 = O=C(Cc1ccc(Cl)cc1Cl)*; Decanoyl = CCCCCCCCCC(=O)*; Octanoyl = CCCCCCCC(=O)*; Orn = NCCC[C@H](N)C(=O)O; Dab = NCC[C@H](N)C(=O)O; X33 = Cc1cccc(C(=O)*)c1; Abu = CC[C@H](N)C(=O)O; Dap = NC[C@H](N)C(=O)O
property: Minimum inhibitory concentration, Ec FADDI-EC003 (µg/mL)
Answers are plain numbers, in µg/mL.

Minimum inhibitory concentration, Ec FADDI-EC003 for Enterobacter cloacae with input CCCCCCCCCCCC(=O)N[C@@H](CCN)C(=O)N[C@H](C(=O)N[C@H](CO)C(=O)N[C@H]1CCNC(=O)[C@H]([C@@H](C)O)NC(=O)[C@H](CCN)NC(=O)[C@H](CCN)NC(=O)[C@H]([C@@H](C)O)NC(=O)[C@@H](CC(C)C)NC(=O)[C@H](CCN)NC1=O)[C@@H](C)O [Compound 10] (Lauroyl-[Dab]T[dS][Dab][Dab][dL]T[Dab][Dab]T; lactam 4-C) equals 0.5

Minimum inhibitory concentration, Ec FADDI-EC003 for Enterobacter cloacae with input CC[C@@H]1NC(=O)[C@@H](CC(C)C)NC(=O)[C@H](CCN)NC(=O)[C@@H](NC(=O)[C@H](CN)NC(=O)[C@@H](NC(=O)[C@H](CCN)NC(=O)c2ccc(Cl)cc2)[C@@H](C)O)CCNC(=O)[C@H]([C@@H](C)O)NC(=O)[C@H](CCN)NC(=O)[C@H](CCN)NC1=O [Compound 94] ({Benzoyl(4-Cl)}-[Dab]T[Dap][Dab][Dab][dL][Abu][Dab][Dab]T; lactam 4-C) equals 0.25

Minimum inhibitory concentration, Ec FADDI-EC003 for Enterobacter cloacae with input CC[C@@H]1NC(=O)[C@@H](CC(C)C)NC(=O)[C@H](CCN)NC(=O)[C@@H](NC(=O)[C@H](CN)NC(=O)[C@@H](NC(=O)[C@H](CCN)NC(=O)c2cccc(C)c2)[C@@H](C)O)CCNC(=O)[C@H]([C@@H](C)O)NC(=O)[C@H](CCN)NC(=O)[C@H](CCN)NC1=O [Compound 87] (X33-[Dab]T[Dap][Dab][Dab][dL][Abu][Dab][Dab]T; lactam 4-C) equals 1

// input: 5 compounds below; output: Minimum inhibitory concentration, Ec FADDI-EC003 for each
1. CCCCCCCC(=O)N[C@@H](CCN)C(=O)N[C@H](C(=O)N[C@@H](CN)C(=O)N[C@H]1CCNC(=O)[C@H]([C@@H](C)O)NC(=O)[C@H](CCN)NC(=O)[C@H](CCN)NC(=O)[C@H]([C@@H](C)O)NC(=O)[C@@H](CC(C)C)NC(=O)[C@H](CCCN)NC1=O)[C@@H](C)O [Compound 55] (Octanoyl-[Dab]T[Dap][Dab][Orn][dL]T[Dab][Dab]T; lactam 4-C)
2. CCCCCCCCCCCC(=O)N[C@@H](CCN)C(=O)N[C@H](C(=O)N[C@@H](CCN)C(=O)N[C@H]1CCNC(=O)[C@H]([C@@H](C)O)NC(=O)[C@H](CCN)NC(=O)[C@H](CCN)NC(=O)[C@H]([C@@H](C)O)NC(=O)[C@@H](CC(C)C)NC(=O)[C@H](CCN)NC1=O)[C@@H](C)O [Compound 28] (Lauroyl-[Dab]T[Dab][Dab][Dab][dL]T[Dab][Dab]T; lactam 4-C)
3. CC[C@@H]1NC(=O)[C@@H](CC(C)C)NC(=O)[C@H](CCN)NC(=O)[C@@H](NC(=O)[C@H](CN)NC(=O)[C@@H](NC(=O)[C@H](CCN)NC(=O)Cc2ccc(C(F)(F)F)cc2)[C@@H](C)O)CCNC(=O)[C@H]([C@@H](C)O)NC(=O)[C@H](CCN)NC(=O)[C@H](CCN)NC1=O [Compound 127] ({Phenylacetyl(4-CF3)}-[Dab]T[Dap][Dab][Dab][dL][Abu][Dab][Dab]T; lactam 4-C)
4. CCCCCCCCCC(=O)N[C@@H](CCN)C(=O)N[C@H](C(=O)N[C@@H](CN)C(=O)N[C@H]1CCNC(=O)[C@H]([C@@H](C)O)NC(=O)[C@H](CCN)NC(=O)[C@H](CCN)NC(=O)[C@H](C)NC(=O)[C@@H](CC(C)C)NC(=O)[C@H](CCN)NC1=O)[C@@H](C)O [Compound 38] (Decanoyl-[Dab]T[Dap][Dab][Dab][dL]A[Dab][Dab]T; lactam 4-C)
5. CC[C@@H]1NC(=O)[C@@H](CC(C)C)NC(=O)[C@H](CCN)NC(=O)[C@@H](NC(=O)[C@H](CN)NC(=O)[C@@H](NC(=O)[C@H](CCN)NC(=O)Cc2ccc(Cl)cc2Cl)[C@@H](C)O)CCNC(=O)[C@H]([C@@H](C)O)NC(=O)[C@H](CCN)NC(=O)[C@H](CCN)NC1=O [Compound 70] (X13-[Dab]T[Dap][Dab][Dab][dL][Abu][Dab][Dab]T; lactam 4-C)

[out]
1: 4; 2: 0.5; 3: 0.25; 4: 0.5; 5: 0.25

src = patent USRE48335E1
